# Experimental Target: T1, Human LAG3 ECD-Fc (human, UniProt P18627 23-450)
# T1 construct: extracellular domain; 23-450 is stated only for the immunogen; also called recombinant human LAG3 extracellular domain fused to human Fc; hLAG3-hlgFc; not shown: Fc
# T1 sequence (looked up): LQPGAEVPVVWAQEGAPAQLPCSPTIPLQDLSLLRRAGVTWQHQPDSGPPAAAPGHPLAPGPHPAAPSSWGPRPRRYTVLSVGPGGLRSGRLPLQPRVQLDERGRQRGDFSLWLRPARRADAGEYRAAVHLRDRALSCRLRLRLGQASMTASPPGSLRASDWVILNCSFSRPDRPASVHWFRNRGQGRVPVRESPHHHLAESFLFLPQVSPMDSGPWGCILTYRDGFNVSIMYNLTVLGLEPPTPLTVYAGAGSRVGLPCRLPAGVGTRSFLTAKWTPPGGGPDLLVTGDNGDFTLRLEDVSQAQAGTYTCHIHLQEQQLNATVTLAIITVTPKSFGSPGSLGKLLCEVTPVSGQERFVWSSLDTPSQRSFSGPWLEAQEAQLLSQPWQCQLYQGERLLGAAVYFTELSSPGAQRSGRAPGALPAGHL
# Experimental Protocol: blocking assay by FACS: LAG3 ECD-Fc pre-incubated with the antibody, then binding to MHC II on Raji cells detected with PE anti-human IgG, % inhibition against antibody concentration
Observed Property: IC50 (read off the curve)

1) LAG3-5 (antibody, human IgG4 S228P, kappa, V domains shown, Humanized derivative of murine 496G6, human IgG4 (Pro) format, kappa; also called anti-LAG3 antibody LAG3-5) VH: QVTLKESGPTLVKPTQTLTLTCSFSGFSLSTSDMGVGWIRQPPGKALEWLAHIWWDDVKRYNPALKSRLTITKDTSKNQVVLTMTNMDPVDTATYFCARIVDYGVSYYFDYWGQGTTVTVSS VL: DIQMTQSPSFLSASVGDRVSITCKASQDVSTAVAWYQQKPGKAPKLLIYSASYRYTGVPDRFSGSGSGTDFTLTISSLQPEDFAVYYCQQHYSIPLTFGQGTKLEIKR; ~1 nM
2) LAG3-3 (antibody, human IgG4 S228P, kappa, V domains shown, Humanized derivative of murine 496G6, human IgG4 (Pro) format, kappa; also called anti-LAG3 antibody LAG3-3) VH: QVTLVESGGGVVQPGRSLSLSCAFSGFSLSTSDMGVGWVRQPPGKGLEWVAHIWWDDVKRYNPALKSRFTISRDNSKNTLYLQMNSLRAEDTATYYCARIEDYGVSYYFDYWGQGTTVTVSS VL: DIQMTQSPSFLSASVGDRVTITCKASQDVSTAVAWYQQKPGKAPKLLIYSASYRYTGVPDRFSGSGSGTDFTLTISSLQPEDFATYYCQQHYSIPLTFGAGTKLEIKR; ~0.8 nM
3) LAG3-2 (antibody, human IgG4 S228P, kappa, V domains shown, Humanized derivative of murine 496G6, human IgG4 (Pro) format, kappa; also called anti-LAG3 antibody LAG3-2) VH: QVTLKESGPTLVKPTQTLTLTCSFSGFSLSTSDMGVGWIRQPPGKALEWLAHIWWDDVKRYNPALKSRLTITKDTSKNQVVLTMTNMDPVDTATYFCARIEDYGVSYYFDYWGQGTTVTVSS VL: DIQMTQSPSFLSASVGDRVTFTCKASQDVSTAVAWYQQKPGKAPKLLIYSASYRYTGVPDRFSGSGSGTDFTLTISSLQPEDFATYYCQQHYSIPLTFGQGTKLEIKR; ~0.7 nM

Attention now turns to another entry.
stdin: In one line, give reported IC50 (read off the curve) of the entry LAG3-1 (antibody, human IgG4 S228P, kappa, V domains shown, Humanized derivative of murine 496G6, human IgG4 (Pro) format, kappa; also called representative anti-LAG3 antibody of the invention) VH: QVTLVESGGGVVQPGRSLRLSCAFSGFSLSTSDMGVGWIRQAPGKGLEWVAHIWWDDVKRYNPALKSRFTISRDNSKNTLYLQMNSLRAEDTAVYFCARIEDYGVSYYFDYWGQGTTVTVSS VL: DIQMTQSPSFLSASVGDRVSITCKASQDVSTAVAWYQQKPGKAPKLLIYSASYRYTGVPDRFSGSGSGTDFTLTISSLQPEDFATYYCQQHYSIPLTFGQGTKLEIKR .
stdout: ~1 nM

Entry source: patent US20170334995A1
